Reported Ratio of mean permeability (×10^4 cm/s) related to low permeability control (atenolol) is given for each of the following compounds.
method-description: Parallel artificial membrane permeability assay (PAMPA)
Assay type: in vitro ADME
run-parameters: Table 7
measurement-label: Ratio of mean permeability (×10^4 cm/s) related to low permeability control (atenolol)

INSERT INTO assay_data (compound, val) VALUES
  ('Cc1ncsc1-c1ccc([C@H](C)NC(=O)[C@@H]2C[C@@H](O)CN2C(=O)[C@@H](NC(=O)[C@H]2CC[C@H]2C(=O)N2CCC(c3cc(Nc4cc(C#N)ccn4)nc(N4CCC(F)(F)C4)c3)CC2)C(C)(C)C)cc1 (single isomer, unassigned)', 1.47),
  ('C[C@@H](C(=O)N[C@H](C(=O)N1C[C@@H](NC(=O)CCCCCCC(=O)N2CCC(c3cc(Nc4cc(C#N)ccn4)nc(N4CCC(F)(F)C4)c3)CC2)C[C@H]1C(=O)N[C@@H]1CCCc2ccccc21)C1CCCCC1)N(C)C(=O)OC(C)(C)C', 0.05),
  ('Cc1ncsc1-c1ccc([C@H](C)NC(=O)[C@@H]2C[C@@H](O)CN2C(=O)[C@@H](NC(=O)N2CCC(c3cc(Nc4cc(C#N)ccn4)nc(N4CCC(F)(F)C4)c3)CC2)C(C)(C)C)cc1', 0.01),
  ('Cc1ncsc1-c1ccc([C@H](C)NC(=O)[C@@H]2C[C@@H](O)CN2C(=O)[C@@H](NCC(=O)N2CCC(c3cc(Nc4cc(C#N)ccn4)nc(N4CCC(F)(F)C4)c3)CC2)C(C)(C)C)cc1', '−1.86');

----------
method-description: Rat liver microsomal (RLM) stability assay
Type: in vitro ADME
run-parameters: rat liver microsomes; read-out: RLM Stability (t1/2)
measurement-label: half-life

INSERT INTO measurements (sample_smiles, val) VALUES
  ('Cc1ncsc1-c1ccc([C@H](C)NC(=O)[C@@H]2C[C@@H](O)CN2C(=O)[C@@H](NC(=O)c2cncc(C(=O)N3CCC(c4cc(Nc5cc(C#N)ccn5)nc(N5CCC(F)(F)C5)c4)CC3)c2)C(C)(C)C)cc1', '> 30 min'),
  ('Cc1ncsc1-c1ccc([C@H](C)NC(=O)[C@@H]2C[C@@H](O)CN2C(=O)[C@@H](NC(=O)CCCCCCC(=O)N2CCC(c3cc(Nc4cc(C#N)ccn4)nc(N4CCC(F)(F)C4)c3)CC2)C(C)(C)C)cc1', '> 30 min');

----------
method-description: Parallel artificial membrane permeability assay (PAMPA)
Assay type: in vitro ADME
run-parameters: pH 7.4
measurement-label: Papp

INSERT INTO results (compound, measurement_label, val) VALUES
  ('Cc1ncsc1-c1ccc([C@H](C)NC(=O)[C@@H]2C[C@@H](O)CN2C(=O)[C@@H](NC(=O)c2cncc(C(=O)N3CCC(c4cc(Nc5cc(C#N)ccn5)nc(N5CCC(F)(F)C5)c4)CC3)c2)C(C)(C)C)cc1 [Compound 7]', 'Papp', '< 1 ×10⁻⁶ cm/s');

----------
method-description: Parallel artificial membrane permeability assay (PAMPA)
Type: in vitro ADME
run-parameters: Table 7
Reported Ratio of mean permeability (×10^4 cm/s) related to low permeability control (atenolol) is given for each of the following compounds.
measurement-label: Ratio of mean permeability (×10^4 cm/s) related to low permeability control (atenolol)

INSERT INTO measurements (compound, val) VALUES
  ('Cc1ncsc1-c1ccc([C@H](C)NC(=O)[C@@H]2C[C@@H](O)CN2C(=O)[C@@H](NCc2cccc(CN3CCC(c4cc(Nc5cc(C#N)ccn5)nc(N5CCC(F)(F)C5)c4)CC3)n2)C(C)(C)C)cc1', '−0.46'),
  ('Cc1ncsc1-c1ccc([C@H](C)NC(=O)[C@@H]2C[C@@H](O)CN2C(=O)[C@@H](NC(=O)[C@H]2C[C@H](C(=O)N3CCC(c4cc(Nc5cc(C#N)ccn5)nc(N5CCC(F)(F)C5)c4)CC3)C2)C(C)(C)C)cc1', 6.74),
  ('Cc1ncsc1-c1ccc([C@H](C)NC(=O)[C@@H]2C[C@@H](O)CN2C(=O)[C@@H](NC(=O)c2ccc(C(=O)N3CCC(c4cc(Nc5cc(C#N)ccn5)nc(N5CCC(F)(F)C5)c4)CC3)nn2)C(C)(C)C)cc1', '−0.11'),
  ('Cc1ncsc1-c1ccc([C@H](C)NC(=O)[C@@H]2C[C@@H](O)CN2C(=O)[C@@H](NC(=O)c2cc(C(=O)N3CCC(c4cc(Nc5cc(C#N)ccn5)nc(N5CCC(F)(F)C5)c4)CC3)ncn2)C(C)(C)C)cc1', '−0.01'),
  ('Cc1ncsc1-c1ccc([C@H](C)NC(=O)[C@@H]2C[C@@H](O)CN2C(=O)[C@@H](NC(=O)[C@H](CCC(=O)N2CCC(c3cc(Nc4cc(C#N)ccn4)nc(N4CCC(F)(F)C4)c3)CC2)NC(=O)C(N)CCCNC(=N)N)C(C)(C)C)cc1 (stereo partly shown)', 6.74),
  ('Cc1ncsc1-c1ccc([C@H](C)NC(=O)[C@@H]2C[C@@H](O)CN2C(=O)[C@@H](NC(=O)[C@H]2CC[C@@H]2C(=O)N2CCC(c3cc(Nc4cc(C#N)ccn4)nc(N4CCC(F)(F)C4)c3)CC2)C(C)(C)C)cc1 (single isomer, unassigned)', 0.43),
  ('Cc1ncsc1-c1ccc([C@H](C)NC(=O)[C@@H]2C[C@@H](O)CN2C(=O)[C@@H](NC(=O)CCCCC(=O)N2CCC(c3cc(Nc4cc(C#N)ccn4)nc(N4CCC(F)(F)C4)c3)CC2)C(C)(C)C)cc1', 0.61),
  ('Cc1ncsc1-c1ccc([C@H](C)NC(=O)[C@@H]2C[C@@H](O)CN2C(=O)[C@@H](NC(=O)CCC(=O)N2CCC(c3cc(Nc4cc(C#N)ccn4)nc(N4CCC(F)(F)C4)c3)CC2)C(C)(C)C)cc1', '−0.51'),
  ('Cc1ncsc1-c1ccc([C@H](C)NC(=O)[C@@H]2C[C@@H](O)CN2C(=O)[C@@H](NC(=O)c2ccc(C(=O)N3CCC(c4cc(Nc5cc(C#N)ccn5)nc(N5CCC(F)(F)C5)c4)CC3)cc2)C(C)(C)C)cc1', '−0.14'),
  ('Cc1ncsc1-c1ccc([C@H](C)NC(=O)[C@@H]2C[C@@H](O)CN2C(=O)[C@@H](NCc2ccc(C(=O)N3CCC(c4cc(Nc5cc(C#N)ccn5)nc(N5CCC(F)(F)C5)c4)CC3)cc2)C(C)(C)C)cc1', 1.31);

Taken from patent US20240190838A1.
